Test: TULIP Phase II trial, plasma concentrations of obicetrapib
Type: in vivo, humans
Details: both sexes, human, plasma, oral, Obicetrapib 10 mg + rosuvastatin 10 mg; Week 20, eight weeks after the end of treatment; read-out: Mean (SD) Plasma Level
Reported Property: concentration at 20 weeks (ng/mL)

- Molecule: "CCOC(=O)N1c2ccc(C(F)(F)F)cc2C(N(Cc2cc(C(F)(F)F)cc(C(F)(F)F)c2)c2ncc(OCCCC(=O)O)cn2)CC1CC (stereo not shown)"
  Reported Property: "concentration at 20 weeks"
  Readout Number: 11.3

* * *

Test: 39-week oral (gavage) toxicity/toxicokinetic study with 13-week treatment-free recovery period in cynomolgus monkeys
Assay type: in vivo, cynomolgus monkeys (Macaca fascicularis)
Details: male, cynomolgus monkey, plasma, po, 50 mg/kg/day, Day 1; 50 mg/kg/d; males; mean (SD); read-out: t ½ (elimination half‐life) (converted)
Reported Property: half-life (h)

- Molecule: "CCOC(=O)N1c2ccc(C(F)(F)F)cc2C(N(Cc2cc(C(F)(F)F)cc(C(F)(F)F)c2)c2ncc(OCCCC(=O)O)cn2)CC1CC (stereo not shown)"
  Readout Number: 6.8

* * *

Experiment: TA‐8995‐203 Phase II trial in Japanese participants, plasma concentrations of obicetrapib
Type: in vivo, humans
Details: both sexes, human, plasma, oral, Obicetrapib 10 mg + stable statin therapy; Week 12, four weeks after the end of treatment; read-out: Mean (SD) Plasma Level
Reported Property: concentration at 12 weeks (ng/mL)

- Molecule: "CCOC(=O)N1c2ccc(C(F)(F)F)cc2C(N(Cc2cc(C(F)(F)F)cc(C(F)(F)F)c2)c2ncc(OCCCC(=O)O)cn2)CC1CC (stereo not shown)"
  Readout Number: 27.6

* * *

Assay: 39-week oral (gavage) toxicity/toxicokinetic study with 13-week treatment-free recovery period in cynomolgus monkeys
Type: in vivo, cynomolgus monkeys (Macaca fascicularis)
Conditions: female, cynomolgus monkey, plasma, po, 10 mg/kg/day, Day 273 (Week 39); 10 mg/kg/d; females; mean

- Molecule: "CCOC(=O)N1c2ccc(C(F)(F)F)cc2C(N(Cc2cc(C(F)(F)F)cc(C(F)(F)F)c2)c2ncc(OCCCC(=O)O)cn2)CC1CC (stereo not shown)"
  Readout Unit: "ng/mL"
  Cmax: 3390

* * *

Experiment: 39-week oral (gavage) toxicity/toxicokinetic study with 13-week treatment-free recovery period in cynomolgus monkeys
Assay type: in vivo, cynomolgus monkeys (Macaca fascicularis)
Conditions: male, cynomolgus monkey, plasma, po, 10 mg/kg/day, Day 1; 10 mg/kg/d; males; mean (SD); read-out: t ½ (elimination half‐life) (converted)
Reported Property: half-life (h)

- Compound: "CCOC(=O)N1c2ccc(C(F)(F)F)cc2C(N(Cc2cc(C(F)(F)F)cc(C(F)(F)F)c2)c2ncc(OCCCC(=O)O)cn2)CC1CC (stereo not shown)"
  Readout Number: 6.8

* * *

Assay: 39-week oral (gavage) toxicity/toxicokinetic study with 13-week treatment-free recovery period in cynomolgus monkeys
Type: in vivo, cynomolgus monkeys (Macaca fascicularis)
Conditions: male, cynomolgus monkey, plasma, po, 10 mg/kg/day; Day 1; 10 mg/kg/d; males; mean
Method: CETP is present and active in non‐human primates, rabbits, and hamsters, but is absent in most other animal species, including mice, rats, and dogs.[2], [31], [32] […] Individual body weights were recorded once weekly (including Day 1 before the start of dosing) from time of allocation and on the day of necropsy. […]

- Molecule: "CCOC(=O)N1c2ccc(C(F)(F)F)cc2C(N(Cc2cc(C(F)(F)F)cc(C(F)(F)F)c2)c2ncc(OCCCC(=O)O)cn2)CC1CC (stereo not shown)"
  Readout Unit: "ng/mL"
  Cmax: 2800

* * *

Assay: Phase I food effect trial on obicetrapib bioavailability (TA‐8995‐09)
Format: in vivo, humans
Conditions: both sexes, human, plasma, oral, 10 mg, 10 mg single dose; fasted; read-out: t max, median (minimum, maximum)
Procedure: The PK parameters and the effect of food on the bioavailability of obicetrapib in humans have been examined in both Phase I[9] (TA‐8995‐09 CSR, NewAmsterdam Pharma) and Phase II trials.[10], [11], [12], [13] The trials were performed in accordance with the Declaration of Helsinki, Good Clinical Practice Guidelines, and applicable regulatory requirements. […] PK parameters were determined using WinNonlin software, version 4.1 or higher (Pharsight/Certara Corporation, USA). […]

- Compound: "CCOC(=O)N1c2ccc(C(F)(F)F)cc2C(N(Cc2cc(C(F)(F)F)cc(C(F)(F)F)c2)c2ncc(OCCCC(=O)O)cn2)CC1CC (stereo not shown)"
  t max / h: 5

* * *

Assay: TULIP Phase II trial, plasma concentrations of obicetrapib
Assay type: in vivo, humans
Settings: both sexes, human, plasma, oral, Obicetrapib 10 mg + atorvastatin 20 mg; Week 12 (EOT); read-out: Mean (SD) Plasma Level
Procedure: The PK parameters and the effect of food on the bioavailability of obicetrapib in humans have been examined in both Phase I[9] (TA‐8995‐09 CSR, NewAmsterdam Pharma) and Phase II trials.[10], [11], [12], [13] […] PK parameters were determined using WinNonlin software, version 4.1 or higher (Pharsight/Certara Corporation, USA). […] Additionally, the plasma concentrations of obicetrapib were evaluated during and after the treatment period. […]
Reported Property: concentration at 12 weeks (ng/mL)

- Molecule: "CCOC(=O)N1c2ccc(C(F)(F)F)cc2C(N(Cc2cc(C(F)(F)F)cc(C(F)(F)F)c2)c2ncc(OCCCC(=O)O)cn2)CC1CC (stereo not shown) [Obicetrapib]"
  Reported Property: "concentration at 12 weeks"
  Readout Number: 404

* * *

Assay: 39-week oral (gavage) toxicity/toxicokinetic study with 13-week treatment-free recovery period in cynomolgus monkeys
Assay type: in vivo, cynomolgus monkeys (Macaca fascicularis)
Details: female, cynomolgus monkey, plasma, po, 10 mg/kg/day, Day 1; 10 mg/kg/d; females; mean (SD)
Method: CETP is present and active in non‐human primates, rabbits, and hamsters, but is absent in most other animal species, including mice, rats, and dogs.[2], [31], [32] […] Individual body weights were recorded once weekly (including Day 1 before the start of dosing) from time of allocation and on the day of necropsy. […]
Reported Property: t max

- Molecule: "CCOC(=O)N1c2ccc(C(F)(F)F)cc2C(N(Cc2cc(C(F)(F)F)cc(C(F)(F)F)c2)c2ncc(OCCCC(=O)O)cn2)CC1CC (stereo not shown) [Obicetrapib]"
  Result: "5.9 h"

* * *

Test: 39-week oral (gavage) toxicity/toxicokinetic study with 13-week treatment-free recovery period in cynomolgus monkeys
Assay type: in vivo, cynomolgus monkeys (Macaca fascicularis)
Details: female, cynomolgus monkey, plasma, po, 20 mg/kg/day, Day 273 (Week 39); 20 mg/kg/d; females; mean
Method: CETP is present and active in non‐human primates, rabbits, and hamsters, but is absent in most other animal species, including mice, rats, and dogs.[2], [31], [32] […] Individual body weights were recorded once weekly (including Day 1 before the start of dosing) from time of allocation and on the day of necropsy. […]

- Molecule: "CCOC(=O)N1c2ccc(C(F)(F)F)cc2C(N(Cc2cc(C(F)(F)F)cc(C(F)(F)F)c2)c2ncc(OCCCC(=O)O)cn2)CC1CC (stereo not shown)"
  Cmax (ng/mL): 5160

The origin of these recorded values is paper PMC11489133.
